# Tested on: Candida albicans
# Assay Protocol: Antifungal activity against Candida albicans MTCC 227 at 50 to 300 ug/ml by cup-plate method
# Assay type: functional, organism-based
The source made the active and inactive calls. The rule behind the calls is not given here.

{"columns": ["Compound Smiles", "Activity"],
 "data": [
  ["O=C1N/C(=N\\c2ccc(Cl)cc2)S/C1=C\\c1ccc(Cl)cc1", "inactive"],
  ["O=C1N/C(=N\\c2ccc(F)c(Cl)c2)S/C1=C\\c1ccccc1", "inactive"],
  ["O=C1N/C(=N\\c2cccc(Cl)c2)S/C1=C\\c1ccc(Cl)cc1", "inactive"],
  ["O=C1N/C(=N\\c2ccc(Cl)cc2)S/C1=C\\c1ccccc1Cl", "inactive"],
  ["O=C1N/C(=N\\c2cccc(Cl)c2)S/C1=C\\c1ccccc1Cl", "inactive"],
  ["O=C1N/C(=N\\c2cccc(Cl)c2)S/C1=C\\c1ccc(O)cc1", "inactive"],
  ["O=C1N/C(=N\\c2ccc(F)c(Cl)c2)S/C1=C\\c1ccccc1Cl", "inactive"],
  ["O=C1N/C(=N\\c2ccc(Cl)cc2)S/C1=C\\c1ccccc1", "inactive"],
  ["O=C1N/C(=N\\c2ccc(F)c(Cl)c2)S/C1=C\\c1ccccc1[N+](=O)[O-]", "inactive"],
  ["O=C1N/C(=N\\c2cccc(Cl)c2)S/C1=C\\c1cccc([N+](=O)[O-])c1", "inactive"],
  ["O=C1N/C(=N\\c2ccc(F)c(Cl)c2)S/C1=C\\c1ccc(Cl)cc1", "inactive"]
]}

====

compounds and their reported zone of inhibition at 300 µg/mL
# Tested on: Staphylococcus aureus
# Assay Protocol: Antibacterial activity against Staphylococcus aureus MTCC 96 at 300 ug/ml by cup-plate method
# Assay type: functional
# Condition Description: read-out: DIZ

{"columns": ["Compound Smiles", "Unit Info", "zone of inhibition at 300 µg/mL"],
 "data": [
  ["O=C1N/C(=N\\c2ccc(F)c(Cl)c2)S/C1=C\\c1ccccc1[N+](=O)[O-]", "mm", 14],
  ["O=C1N/C(=N\\c2ccc(F)c(Cl)c2)S/C1=C\\c1cccc([N+](=O)[O-])c1", "mm", 16],
  ["COc1cc(/C=C2\\S/C(=N/c3ccc(Cl)cc3)NC2=O)ccc1O", "mm", 8],
  ["O=C1N/C(=N\\c2ccc(F)c(Cl)c2)S/C1=C\\c1ccccc1Cl", "mm", 14],
  ["O=C1N/C(=N\\c2ccc(Cl)cc2)S/C1=C\\c1ccccc1[N+](=O)[O-]", "mm", 10],
  ["COc1cc(/C=C2\\S/C(=N/c3cccc(Cl)c3)NC2=O)ccc1O", "mm", 8],
  ["O=C1N/C(=N\\c2ccc(F)c(Cl)c2)S/C1=C\\c1ccc(O)cc1", "mm", 11],
  ["O=C1N/C(=N\\c2cccc(Cl)c2)S/C1=C\\c1ccccc1Cl", "mm", 9],
  ["O=C1N/C(=N\\c2ccc(Cl)cc2)S/C1=C\\c1ccccc1", "mm", 10],
  ["O=C1N/C(=N\\c2cccc(Cl)c2)S/C1=C\\c1cccc([N+](=O)[O-])c1", "mm", 10]
]}

====

# System: Staphylococcus aureus
# Assay Protocol: Antibacterial activity against Staphylococcus aureus MTCC 96 at 200 ug/ml by cup-plate method
# Format: functional
# Condition Description: read-out: DIZ
molecules and their reported zone of inhibition at 200 µg/mL
Property Name: zone of inhibition at 200 µg/mL

{"columns": ["Compound Smiles", "Recorded Measurement"],
 "data": [
  ["O=C1N/C(=N\\c2ccc(Cl)cc2)S/C1=C\\c1ccccc1Cl", "9 mm"],
  ["O=C1N/C(=N\\c2ccc(F)c(Cl)c2)S/C1=C\\c1ccccc1[N+](=O)[O-]", "13 mm"],
  ["O=C1N/C(=N\\c2ccc(F)c(Cl)c2)S/C1=C\\c1ccc(O)cc1", "10 mm"],
  ["O=C1N/C(=N\\c2cccc(Cl)c2)S/C1=C\\c1ccccc1", "8 mm"],
  ["O=C1N/C(=N\\c2ccc(Cl)cc2)S/C1=C\\c1ccccc1[N+](=O)[O-]", "10 mm"]
]}

====

# Tested on: Staphylococcus aureus
# Assay Protocol: Antibacterial activity against Staphylococcus aureus MTCC 96 at 300 ug/ml by cup-plate method
# Type: functional
# Condition Description: read-out: DIZ
Returns one of True or False; True when zone of inhibition at 300 µg/mL is >= 10 mm.

{"columns": ["Compound Smiles", "Class Label"],
 "data": [
  ["O=C1N/C(=N\\c2ccc(Cl)cc2)S/C1=C\\c1ccc(O)cc1", "False"],
  ["O=C1N/C(=N\\c2ccc(F)c(Cl)c2)S/C1=C\\c1ccc(Cl)cc1", "True"],
  ["O=C1N/C(=N\\c2cccc(Cl)c2)S/C1=C\\c1ccccc1", "False"],
  ["COc1cc(/C=C2\\S/C(=N/c3ccc(F)c(Cl)c3)NC2=O)ccc1O", "True"]
]}

====

# Test system: Bacillus subtilis
# Assay Protocol: Antibacterial activity against Bacillus subtilis MTCC 121 at 200 ug/ml by cup plate method
# Type: functional
# Condition Description: read-out: DIZ
compounds and their reported zone of inhibition at 200 µg/mL

{"columns": ["Compound Smiles", "zone of inhibition at 200 µg/mL (mm)"],
 "data": [
  ["O=C1N/C(=N\\c2ccc(Cl)cc2)S/C1=C\\c1ccccc1", 9],
  ["O=C1N/C(=N\\c2ccc(F)c(Cl)c2)S/C1=C\\c1ccccc1[N+](=O)[O-]", 13],
  ["O=C1N/C(=N\\c2ccc(Cl)cc2)S/C1=C\\c1cccc([N+](=O)[O-])c1", 10],
  ["O=C1N/C(=N\\c2ccc(F)c(Cl)c2)S/C1=C\\c1ccccc1", 10],
  ["O=C1N/C(=N\\c2cccc(Cl)c2)S/C1=C\\c1ccc(O)cc1", 8],
  ["COc1cc(/C=C2\\S/C(=N/c3ccc(Cl)cc3)NC2=O)ccc1O", 7],
  ["O=C1N/C(=N\\c2ccc(F)c(Cl)c2)S/C1=C\\c1cccc([N+](=O)[O-])c1", 14],
  ["COc1cc(/C=C2\\S/C(=N/c3cccc(Cl)c3)NC2=O)ccc1O", 8],
  ["O=C1N/C(=N\\c2ccc(Cl)cc2)S/C1=C\\c1ccc(Cl)cc1", 8],
  ["O=C1N/C(=N\\c2ccc(Cl)cc2)S/C1=C\\c1ccccc1[N+](=O)[O-]", 10]
]}

====

compounds and their reported zone of inhibition at 200 µg/mL
# System: Bacillus subtilis
# Assay Protocol: Antibacterial activity against Bacillus subtilis MTCC 121 at 200 ug/ml by cup plate method
# Assay type: functional
# Condition Description: read-out: DIZ

{"columns": ["Compound Smiles", "zone of inhibition at 200 µg/mL (mm)"],
 "data": [
  ["O=C1N/C(=N\\c2ccc(Cl)cc2)S/C1=C\\c1ccc(O)cc1", 7],
  ["O=C1N/C(=N\\c2ccc(F)c(Cl)c2)S/C1=C\\c1ccccc1Cl", 14],
  ["O=C1N/C(=N\\c2cccc(Cl)c2)S/C1=C\\c1ccccc1", 7],
  ["O=C1N/C(=N\\c2ccc(Cl)cc2)S/C1=C\\c1ccccc1Cl", 9],
  ["COc1cc(/C=C2\\S/C(=N/c3ccc(F)c(Cl)c3)NC2=O)ccc1O", 8],
  ["O=C1N/C(=N\\c2cccc(Cl)c2)S/C1=C\\c1ccc(Cl)cc1", 10]
]}

====

# System: Escherichia coli
# Assay Protocol: Antibacterial activity against Escherichia coli MTCC 739 at 200 ug/ml by cup-plate method
# Format: functional
# Condition Description: read-out: DIZ

{"columns": ["Compound Smiles", "zone of inhibition at 200 µg/mL (mm)"],
 "data": [
  ["O=C1N/C(=N\\c2cccc(Cl)c2)S/C1=C\\c1ccccc1", 7],
  ["O=C1N/C(=N\\c2cccc(Cl)c2)S/C1=C\\c1ccccc1Cl", 8],
  ["O=C1N/C(=N\\c2cccc(Cl)c2)S/C1=C\\c1ccc(Cl)cc1", 9],
  ["COc1cc(/C=C2\\S/C(=N/c3ccc(Cl)cc3)NC2=O)ccc1O", 9],
  ["O=C1N/C(=N\\c2cccc(Cl)c2)S/C1=C\\c1cccc([N+](=O)[O-])c1", 8],
  ["COc1cc(/C=C2\\S/C(=N/c3cccc(Cl)c3)NC2=O)ccc1O", 9],
  ["COc1cc(/C=C2\\S/C(=N/c3ccc(F)c(Cl)c3)NC2=O)ccc1O", 8],
  ["O=C1N/C(=N\\c2cccc(Cl)c2)S/C1=C\\c1ccccc1[N+](=O)[O-]", 9],
  ["O=C1N/C(=N\\c2ccc(Cl)cc2)S/C1=C\\c1ccc(O)cc1", 8],
  ["O=C1N/C(=N\\c2cccc(Cl)c2)S/C1=C\\c1ccc(O)cc1", 8],
  ["O=C1N/C(=N\\c2ccc(Cl)cc2)S/C1=C\\c1ccccc1Cl", 10]
]}
